measured-parameter: melting point

For orientation, consider the following solved cases.
# lookup: melting point of `Cc1cccc(-c2cccc(-c3nc(C)cc(Cl)n3)n2)c1`
105 °C

Thanks! And `CC(=NO)C(C)(C)NCCCNC(C)(C)C(Cn1cc(C)nc1[N+](=O)[O-])=NO` ?
140 to 141 °C

`CC(=O)n1c(=O)oc2c(Cl)c(Cl)c(Cl)cc21` ?
171 to 172 °C

Continue with NS(=O)(=O)c1cc2c(cc1Cl)NC(CCCCCO)NS2(=O)=O (configuration not stated)
190 °C

***
For CCOC(=O)C1=C(C)NC(C)=C(C(=O)OC)C1c1cc([N+](=O)[O-])ccc1Cl (configuration not stated) , what is its reported melting point?
163 to 164 °C

// repeat for `CCCCCCCCCCCCCCc1c[nH]c(C(=O)O)c1` and report
148 to 150 °C

Okay, and CC1(C)CCC(C)(C)c2cc(C(O)C#Cc3ccc(C(=O)O)c(O)c3)ccc21 (configuration not stated) ?
203 to 204 °C

# repeat for O=C(Cn1cc(-c2ccccc2)cc(NC(=O)OCc2ccccc2)c1=O)NC(Cc1ccccc1)C(=O)C(F)(F)F (configuration not stated)
147 to 151 °C

Same lookup for `O=C(CSc1ccc(O)cc1)NC(=O)c1ccccc1` , please.
149 to 151 °C

Continue with `O=c1[nH]c2ccc(-c3cccc([N+](=O)[O-])c3)cc2o1`
280 to 281 °C

Entry `CC#CCOc1cc(Oc2c(F)cccc2F)ncn1` please
79.8 °C

Same question, `O=C(CCBr)NCC(=O)c1ccccc1` this time
114 °C

What do you have for `CCOC(=O)c1c(CN2CCCCC2)nc2cc(OC)c(OC)cc2c1-c1ccc(OC)cc1` ?
129 to 130 °C

Note, next up: `CCCCOc1cc(/C=C(\OCC)C(=O)O)ccc1OCCc1ccc(OS(C)(=O)=O)cc1`
117 °C

What about `COc1ccc(C=O)c(F)c1OC` ?
52 to 54 °C

###

measured-parameter: melting point

Would you kindly share the measured melting point for `CN(C(=O)C1CCC1)c1cccc(-c2ccnc3c(C#N)cnn23)c1` ?
157 to 158 °C

Okay, and `CC(C)=CCOc1ccc2c(=O)c(C)c(-c3ccccc3)oc2c1C(=O)C=Cc1ccccc1` ?
83 to 84 °C

// same read-out, input: CNC(c1cccc(OCOC)c1)C1CCCCC1O (stereo unspecified)
87 to 89 °C

Then this molecule: CC(=NO)C(C)(C)NCC(O)CNC(C)(C)C(CCn1ccnc1[N+](=O)[O-])=NO (stereo unspecified)
62 to 64 °C

Follow-up item: `COc1ccc(OC)c2c1c(C(=O)C(=O)NC1=CC(=O)OC1)cn2Cc1ccc(Cl)cc1`
212 to 215 °C

O=C(Nc1cccc2c1C(=O)c1c-2n[nH]c1-c1ccc(C(=O)NC2CCCNC2)s1)NN1CCOCC1 (stereo unspecified) , same question.
> 300 °C

Now consider `Cc1c(Cl)nn2cc(-c3ccc(F)cc3)nc2c1C` and answer again.
172 to 174 °C

Can you handle `COC(=O)c1cc(Cl)cc(I)c1O` next?
143 to 145 °C

Try this molecule too: `Cc1nc2ccccc2n1-c1ccc(C(=O)N(C)C2CCNCC2)cc1`
219 to 221 °C

// same read-out, input: `CNC(=O)Nc1ccc(Oc2ccc3sncc3c2)c(C(F)(F)F)c1`
138 °C

###

measured-parameter: melting point

Any idea what melting point was measured for `COc1ccc(N2CCCN(c3ccnc4sc(C(N)=O)c(N)c34)CC2)cc1` ?
206 to 208 °C

---
For the molecule shown here, `CCCc1c(OCCCOc2cccc(C(=O)NCCCCc3cccnc3)c2)ccc(C(C)=O)c1O` , give the reported melting point.
84 to 86 °C

Record: `CC(C)[C@@H]1C[C@@H]([C@H](C[C@H](C(=O)N2C(=O)OC[C@@H]2Cc2ccccc2)C(C)C)N=[N+]=[N-])OC1=O`
102 to 103 °C

Check `CC(=O)Oc1ccc2cccc(O)c2n1` too.
240 to 241 °C

Another molecule: COc1ccc(Cc2nc3c(cnn3C(CCCc3ccccc3)C(C)O)c(=O)[nH]2)cc1OC (centres undefined)
85 °C

For `NC(=O)N1CCN(c2n[nH]c3ccccc23)CC1` then?
158 to 160 °C

// same read-out, input: CCC1(c2c[nH]cn2)Cc2ccc(N)cc2C1 (centres undefined)
145 to 152 °C

Do the same for `Cc1nc(N)nc(N)c1-c1cc(Cl)cc(Cl)c1Cl` please
236 to 238 °C

Entry CC1CC(=O)NN=C1c1ccc(N=Cc2ccccc2O)cc1 (centres undefined) please
207 to 209 °C

Next: `O=C(Nc1cc(Cl)cc(Cl)c1)c1ccc(Cl)cc1O`
255 to 256 °C

Request: `CCNC(=O)Nc1ccc2c(c1Cl)C(c1ccccc1F)=NCC(=O)N2C`
155 to 160 °C

Same again, this time with CN1CCC23c4c5ccc(O)c4OC2C(=NO)CCC3(O)C1C5 (centres undefined)
270 to 271 °C

Input `C=C1c2[nH]c3ccc(OC)cc3c2CCN1C=O`
180 to 181 °C

Consider next the molecule O=C1C(c2ccc(-c3ccccc3)cc2)n2cncc2CN1Cc1ccc(F)cc1 (centres undefined) in the same way.
189 to 190 °C

Now consider `CCOC(=O)C(Cc1c(Br)c(OC)c(OC)c(OC)c1OC)(C(=O)OCC)c1ccc(OCc2ccccc2)cc1` and answer again.
93 to 94 °C

Now give it for `CC(=C1SCCCS1)c1ccc(N2CCN(C)CC2)cc1` too.
91 to 92 °C

Entry `CCOC(=O)c1ncc2[nH]c3ccc(P(=O)(CC)CC)cc3c2n1` please
195 to 197 °C

Now this one: Cc1nc(C)c(C(C)(O)c2ccccc2)o1 (centres undefined)
94.5 to 96 °C

Try this molecule next: `COc1ccc(N2CCOCC2)c2sc(NC(=O)N3CC4CC[C@@](C)(C3)C4(C)C)nc12`
185 to 189 °C

Then what about the molecule `O=C(NC(=S)NCCSCc1c[nH]cn1)c1ccccc1` ?
126 to 128 °C

###

Overview of reported melting point across a group of molecules:

Solved entries:
Fill blank: measured melting point of the molecule `Nc1c(Cl)cc(CO)cc1Cl` is ____.
110 to 112 °C

Entry to check: `COc1ccc(CCCN2C(=O)c3ccccc3C2=O)cc1OC`
82 to 85 °C

Another molecule: `NS(=O)(=O)c1ccc(-n2nc(C(F)(F)F)cc2-c2ccc(Cl)cc2)cc1`
126 to 128 °C

Lab note: next molecule to report on.
Fill in: melting point of `CC(=O)Nc1ccc(C(F)(F)F)cc1C` is ___
160 °C

###

measured-parameter: melting point

I'd like to know its melting point. The compound in question is `CCCCCCCCS(=O)(=O)c1ccc(C#N)c(C#N)c1`
70 to 71 °C

Next compound up: CN(Cc1cc2c(=O)c(C(=O)NCc3ccc(Cl)cc3)cn(C)c2o1)CC(O)c1ccc(O)cc1 (configuration not stated)
72 to 75 °C

Further cases:
Look up melting point for this compound: `CC(C)(C)c1ccc(C(=O)Nc2cn3cc(-c4cnc[nH]4)ccc3n2)cc1`
297 to 298 °C

Input `O=C1c2cc(OC(F)(F)F)ccc2S(=O)(=O)N1CCCCBr`
77 to 78 °C

Queued: `CNc1ccc([N+](=O)[O-])c(C(=O)NCC2CCN(C(c3ccccc3)c3ccccc3)CC2)c1`
185 °C

Consider next the compound `CCC(C)(c1ccc(O)c(C)c1)c1ccc(O)c(C)c1` in the same way.
144 to 146 °C

# iterate: CCCCCCCCCCCCCCCC(=O)SC1CCN(C(C(=O)OC)c2ccccc2F)CC1 (configuration not stated)
44 to 47 °C

Try this compound too: CC(=O)NC(Cc1ccccc1)C(=O)OCc1cc(C)cc(C)c1 (configuration not stated)
97 to 100 °C

Likewise for `CCCOc1ccccc1-c1cc(C)c(C(=O)O)c(=O)[nH]1` ?
175 to 177 °C

Continue with `CN1CCN(C2=Nc3cc(Cl)ccc3Nc3nn(C)nc32)CC1`
200 to 203 °C

Ok, now `COc1ccccc1-c1nc2cc(NC(=O)OC(C)(C)C)ccn2n1`
203 °C

Queued: `CN(C)c1cccc(-c2cccc(-c3ccnc4c(C(=O)c5cccs5)cnn34)c2)c1`
167 to 169 °C

Could you do the same for CCc1ccc2c(c1)C=Cc1cc(C)ccc1C2c1cn(-c2ccnc(N(C)CC(=O)O)n2)c(=O)[nH]c1=S (configuration not stated) , please?
187 °C

###

Below, each entry is listed alongside its reported melting point.

Which melting point value is on record for `COc1cc([N+](=O)[O-])c(N)cc1O` ?
208 °C

// query: `C=C(c1ccc(N2CCCC2)cc1)c1ccc(N2CCCC2)cc1`
211 °C

Next up: COc1cc2c(cc1OC)C1C(Cl)=NC=NC1N2 (stereo unspecified)
148 to 150 °C

Please do the same for `O=C(Nc1ccc(-c2ccccc2)cc1)c1cccc([N+](=O)[O-])c1O` as well.
152 °C

Also `CC(C)N(C1CCCC1)S(=O)(=O)N[C@@H](Cc1ccc(NC(=O)c2c(Cl)cncc2Cl)cc1)C(=O)O` ?
157 °C

More entries:
// returns reported melting point for input `COc1ccc(-c2ccc(Cl)cc2C#N)cc1C=O`
187 to 189 °C

Another compound to look at: COC(=O)CCCCCSC1=CC(OC2CCCCO2)CC1=O (stereo unspecified)
41 to 42 °C

Then what about the compound `CCc1[nH]n(C2CCCC2)c2nc(-c3cc(OCCN4CCOCC4)cc(OCCN4CCOCC4)c3)nc(=O)c1-2` ?
182 to 183 °C

Note, next up: `CC(C)c1ccc2c(c1)c(=O)[nH]c1c2c2ccccc2n1C`
315 to 325 °C

Would you kindly repeat that for `CC(=O)Nc1ccc(OS(N)(=O)=O)cc1` ?
180 to 181 °C

How about this compound: CC(C(N)=O)C(O)(Cn1cncn1)c1ccc(Cl)cc1 (stereo unspecified)
186 to 189 °C

Follow-up entry: `Nc1ccccc1NC(=O)c1cc2cc(OCc3ccccn3)ccc2s1`
205 to 207 °C
